Target: hGLP-1R (Homo sapiens, UniProt P43220)
Sequence (P43220 24-463): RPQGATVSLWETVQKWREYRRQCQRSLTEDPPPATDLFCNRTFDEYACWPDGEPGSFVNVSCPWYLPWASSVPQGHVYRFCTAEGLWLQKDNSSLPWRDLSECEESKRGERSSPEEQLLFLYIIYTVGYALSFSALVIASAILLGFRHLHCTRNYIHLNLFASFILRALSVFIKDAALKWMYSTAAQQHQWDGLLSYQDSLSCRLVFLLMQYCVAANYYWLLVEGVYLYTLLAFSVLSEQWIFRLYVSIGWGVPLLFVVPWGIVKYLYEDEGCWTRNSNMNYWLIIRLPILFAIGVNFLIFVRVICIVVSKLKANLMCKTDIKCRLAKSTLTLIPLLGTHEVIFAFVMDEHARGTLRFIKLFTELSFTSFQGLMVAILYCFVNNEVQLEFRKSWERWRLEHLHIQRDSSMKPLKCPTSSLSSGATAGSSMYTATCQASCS
Assay: Functional cAMP activation in the presence of 0.1% casein (no HSA);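 also: intracellular cAMP rise after 30 min at 37 °C read by HTRF, normalized between buffer only (0%) and maximal control ligand (100%), four-parameter variable-slope fit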
Type: cell-based
Settings: in the presence of 0.1% casein (no HSA); geometric mean; read-out: Relative cAMP EC50, hGLP-1R
pEC50: −log10 of the molar value. Starred links: 1 amine or outer side, 2 acyl side, 3 side chain; linkers in the order of their positions; H or OH if unused. Non-standard residues stand in square brackets, D forms with d. Groups on a side chain read outwards from the residue. No end group written: not given here. *: point of attachment. C20 diacid = O=C(O)CCCCCCCCCCCCCCCCCCC(=O)*; C18 diacid = O=C(O)CCCCCCCCCCCCCCCCC(=O)*; αMePhe(2-F) = C[C@](N)(Cc1ccccc1F)C(=O)O; γGlu = O=C(O)[C@H](CCC(=O)[*:2])N[*:1]; αMe4Pal = C[C@](N)(Cc1ccncc1)C(=O)O; αMeY = C[C@](N)(Cc1ccc(O)cc1)C(=O)O; 4Pal = N[C@@H](Cc1ccncc1)C(=O)O; αMeL = CC(C)C[C@](C)(N)C(=O)O; Orn = NCCC[C@H](N)C(=O)O; AEEA = NCCOCCOCC(=O)O; Aib = CC(C)(N)C(=O)O

>  <substance>
H-Y[Aib]QGTFTSDFSK[αMeL]LDKK([AEEA-γGlu-C20 diacid])AQ[Aib]AFIEYLLAGGPSSGAPPPSEG-NH2 [Example 10]

>  <pEC50>
8.73

$$$$
>  <substance>
Y[Aib]QGTFTSD[4Pal]SQ[αMeL]LDKK([AEEA-γGlu-C18 diacid])AQ[αMe4Pal]AFIE[αMeY]LIEGGPSSGAPPPEGS-NH2 [Example 852]

>  <pEC50>
9.06

$$$$
>  <substance>
H-Y[Aib]QGT[αMePhe(2-F)]TSDYSKLLDKIAQK([AEEA-γGlu-C20 diacid])AFIEYLIEGGPSSGAPPPEGE-NH2 [Example 357]

>  <pEC50>
9.20

$$$$
>  <substance>
Y[Aib]QGTFTSDFS[Orn][αMeL]LDKK([AEEA-γGlu-C18 diacid])AQ[Aib]AFIEWLLEGGHSSGEPPPSGE-NH2 [Example 124]

>  <pEC50>
8.21

$$$$
>  <substance>
H-Y[Aib]QGTFTSDFS[Orn][αMeL]LDKK([AEEA-γGlu-C18 diacid])AQ[Aib]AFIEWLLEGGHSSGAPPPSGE-NH2 [Example 122]

>  <pEC50>
8.41

$$$$
>  <substance>
H-Y[Aib]QGTFTSDFS[Orn][αMeL]LD[Orn]K([γGlu-γGlu-C18 diacid])AQ[Aib]AFIEYLLEGGPSSGAPPPGGSEE-NH2 [Example 1048]

>  <pEC50>
8.21

$$$$

###

Target: hGIPR (Homo sapiens, UniProt P48546)
Sequence (P48546 22-466): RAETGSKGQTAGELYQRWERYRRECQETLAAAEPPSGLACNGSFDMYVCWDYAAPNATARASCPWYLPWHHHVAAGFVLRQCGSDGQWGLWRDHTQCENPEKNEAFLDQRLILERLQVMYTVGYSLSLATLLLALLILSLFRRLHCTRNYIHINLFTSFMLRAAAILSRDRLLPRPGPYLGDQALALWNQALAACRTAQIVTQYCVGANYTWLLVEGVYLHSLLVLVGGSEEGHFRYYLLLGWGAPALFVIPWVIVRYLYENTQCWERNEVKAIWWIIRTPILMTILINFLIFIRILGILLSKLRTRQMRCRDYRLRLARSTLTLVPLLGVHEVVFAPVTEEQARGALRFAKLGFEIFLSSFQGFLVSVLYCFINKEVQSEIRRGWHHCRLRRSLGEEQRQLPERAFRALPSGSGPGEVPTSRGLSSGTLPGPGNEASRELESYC
Test: Functional cAMP activation in the presence of 0.1% casein (no HSA);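 also: intracellular cAMP rise after 30 min at 37 °C read by HTRF against a standard curve, scaled between buffer alone (0%) and top control ligand concentration (100%), four-parameter fit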
Format: cell-based
Conditions: read-out: Relative cAMP EC50, hGIPR
pEC50: −log10 of the molar value. Starred links: 1 amine or outer side, 2 acyl side, 3 side chain; linkers in the order of their positions; H or OH if unused. Non-standard residues stand in square brackets, D forms with d. Groups on a side chain read outwards from the residue. No end group written: not given here. *: point of attachment. C18 diacid = O=C(O)CCCCCCCCCCCCCCCCC(=O)*; αMePhe(2-F) = C[C@](N)(Cc1ccccc1F)C(=O)O; γGlu = O=C(O)[C@H](CCC(=O)[*:2])N[*:1]; αMe4Pal = C[C@](N)(Cc1ccncc1)C(=O)O; αMeY = C[C@](N)(Cc1ccc(O)cc1)C(=O)O; 4Pal = N[C@@H](Cc1ccncc1)C(=O)O; αMeL = CC(C)C[C@](C)(N)C(=O)O; αMeS = C[C@](N)(CO)C(=O)O; Orn = NCCC[C@H](N)C(=O)O; AEEA = NCCOCCOCC(=O)O; Aib = CC(C)(N)C(=O)O
Attribute: pEC50
readoutType: pEC50

>  <substance>
H-Y[Aib]QGT[αMePhe(2-F)]TSD[4Pal][αMeS]I[αMeL]LD[Orn]K([AEEA-γGlu-C18 diacid])AQ[αMe4Pal]EFI[dE][αMeY]LIEGGPSSGAPPPSGSEE-NH2 [Example 713]

>  <resultNumber>
11.03

$$$$
>  <substance>
Y[Aib]QGT[αMePhe(2-F)]TSD[4Pal][αMeS]I[αMeL]LD[Orn]K([AEEA-γGlu-C18 diacid])AQ[αMe4Pal]EFI[dE][αMeY]LVEGGPSSGAPPPSGGGE-NH2 [Example 769]

>  <resultNumber>
11.07

$$$$
>  <substance>
Y[Aib]QGT[αMePhe(2-F)]TSD[4Pal][αMeS]ILLD[Orn]K([γGlu-γGlu-C18 diacid])AQ[Aib][Orn]FI[dE][αMeY]LQEGGPSSGEPPPEGAE-NH2 [Example 546]

>  <resultNumber>
9.60

$$$$
